TEST_SUMMARY: HD-MB03 medulloblastoma cell growth inhibition, synergistic combos for chromothripsis tumors, BGB or cisplatin IC20 combos (AID 1671455);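 further: 0% = vehicle DMSO and 100% = high DMSO as cytotoxic control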
ASSAY_SETUP: HD-MB03 medulloblastoma cells, measured here: combo with BGB at IC20, at 0.5 µM, stronger effect = higher value
Measured inhibition values are reported for all entries that follow.
VALUE_TYPE: inhibition (%)

>>> recorded_measurement("CO[C@H]1/C=C/O[C@@]2(C)Oc3c(C)c(O)c4c(O)c(c(C=NN5CCN(C)CC5)c(O)c4c3C2=O)NC(=O)/C(C)=C\\C=C\\[C@H](C)[C@H](O)[C@@H](C)[C@@H](O)[C@@H](C)[C@H](OC(C)=O)[C@@H]1C")
-1.06
>>> recorded_measurement("O=C(Nc1ccncc1)c1cc([N+](=O)[O-])ccc1Cl")
-10.4
>>> recorded_measurement("CCc1c2c(nc3ccc(O)cc13)-c1cc3c(c(=O)n1C2)COC(=O)[C@]3(O)CC")
99.5
>>> recorded_measurement("NC(=O)c1ncn(C2OC(CO)C(O)C2O)n1 (centres undefined)")
-1.27

###

Tested on: Hepatitis C virus NS3 helicase
TEST_SUMMARY: HCV NS3 helicase inhibitors, primary screen, biochemical, fluorescence polarization, NIH Clinical Collection (AID 743270)
ASSAY_SETUP: NS3 helicase binding to Cy5-dT15 DNA, stronger effect = higher value, concentration not given here
VALUE_TYPE: inhibition (%)

>>> recorded_measurement("CCC1=C[C@H]2CN(C1)Cc1c([nH]c3ccccc13)[C@@](C(=O)OC)(c1cc3c(cc1OC)N(C)[C@H]1[C@@](O)(C(=O)OC)[C@H](OC(C)=O)[C@]4(CC)C=CCN5CC[C@]31[C@@H]54)C2")
-1.98
>>> recorded_measurement("CCCCN1CCCC1CNC(=O)c1cc(C#N)c2ccccc2c1OC (stereo unspecified)")
-0.22
>>> recorded_measurement("CC(N)(Cc1ccc(O)c(O)c1)C(=O)O (stereo unspecified)")
-3.18
>>> recorded_measurement("CN(CCO)CC(O)Cn1cnc2c1c(=O)n(C)c(=O)n2C (stereo unspecified) (tested in a mixture with another compound)")
-0.22
>>> recorded_measurement("CN1CC(=O)N2[C@H](c3ccc4c(c3)OCO4)c3[nH]c4ccccc4c3C[C@@H]2C1=O")
-0.4
>>> recorded_measurement("CC(=O)CCCCn1cnc2c1c(=O)n(C)c(=O)n2C")
-0.4

###

TEST_SUMMARY: antimalarial activity against Dd2 strain (AID 2302);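 further: 0% = DMSO untreated growth and 100% = chloroquine plus artemisinin killed control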
ASSAY_SETUP: P. falciparum Dd2 in RBCs, LDH growth readout, 72 h; at 2 µM; stronger effect = higher value
Measured growth inhibition values are reported for all entries that follow.
VALUE_TYPE: growth inhibition (%)

>>> recorded_measurement("Cc1ccc(CN2CCCN(Cc3cccc(NC(=O)c4ccc(-c5ccccc5)cc4)c3)CC2)cc1C")
19
>>> recorded_measurement("CCNC(C)(C)CN(Cc1ccc(-c2ccc(C(F)(F)F)cc2)cc1)C(=O)Cn1c(CCc2cccc(F)c2F)nc(=O)c2ccccc21")
70
>>> recorded_measurement("COC(=O)c1cccc(OCCNC2CCN(C[C@H](O)c3ccnc4ccc(OC)cc34)CC2)c1")
96
>>> recorded_measurement("CN(C)CCNCc1ccc(-c2ccc3c(Nc4ccc(Oc5ccccc5)cc4)ccnc3c2)o1")
99
>>> recorded_measurement("O=C(Nc1ccc(Cl)cc1)Nc1cccc(-c2ccc(-c3nc4ccc(F)cc4[nH]3)cc2)c1")
99
>>> recorded_measurement("CCc1c(C(=O)NC2CCC(N3CCC(c4ccccc4C)CC3)CC2)[nH]c2ccc(Br)cc12 (centres undefined)")
99
>>> recorded_measurement("CC(C)NCc1ccc(-c2cccc(-c3nc4ccc(C(F)(F)F)cc4[nH]3)c2)cc1")
100
>>> recorded_measurement("COc1ccc(C(=O)N2CCC3(CC2)C(=O)N(CC(=O)NCC2CCCCC2)CN3c2ccccc2)c(OC)c1")
99
>>> recorded_measurement("COc1cccc(Nc2nc(C)cc(Nc3cccc(C#N)c3)n2)c1")
92
>>> recorded_measurement("Cc1[nH]c(C)c(-c2ccc(S(=O)(=O)c3ccc(Cl)cc3)cc2)c(=O)c1Br")
97
>>> recorded_measurement("CC(Oc1ccc(Cl)cc1)C(=O)Nc1cc(C(F)(F)F)ccc1N1CCOCC1 (centres undefined)")
97
>>> recorded_measurement("COc1ccc2nccc(NC(=O)N3CCC(NCCOc4cc(F)cc(F)c4)CC3)c2n1")
38
>>> recorded_measurement("Nc1c(Cl)cc(C(O)CNCCCCCOCCCc2ccc(O)c3ncccc23)cc1Cl (centres undefined)")
12
>>> recorded_measurement("CCCC(=O)Nc1ccc(OCCCCN(Cc2ccccc2C(F)(F)F)c2ccc(C(F)(F)F)c(C#N)c2)cc1")
94
>>> recorded_measurement("COc1ccc(Cc2c(Cl)nc3nc(N)nc(N)c3c2C)c(OC)c1OC")
-3
>>> recorded_measurement("CCN(C)C(=O)n1ncc2c3c(N)nc(N)nc3ccc21")
0
>>> recorded_measurement("CCOc1cc(OCC)c2ccccc2c1CNCCCCCCNCc1c(OCC)cc(OCC)c2ccccc12")
89
>>> recorded_measurement("COC(=O)CNC(c1ccccc1)c1cc(Br)ccc1NC(=O)c1ccccc1Br (centres undefined)")
77
>>> recorded_measurement("Cc1sc(C)c(CNCCCNc2cc(=O)c3ccccc3[nH]2)c1Br")
15
